- run.description: RP, Waters CORTECS UPLC C18, 100 × 2.1 mm, 1.6 µm, 40 °C, 0.4 mL/min, estimated dead time 0.55 min; A: water + 0.1% formic acid, pH 3; B: acetonitrile + 0.1% formic acid, pH 3; gradient (min/%B) 0/5 1.12/5 6.41/99.5 10.01/99.5
- condition.label: stereoisomer not certain
Give Fulfilled when the value for LC retention time is at least 4 min. Give Not fulfilled when it is less.

Task: Given the entry CC(CCC(=O)O)C1CCC2C3C(=O)CC4CC(=O)CCC4(C)C3CC(=O)C12C (stereo unspecified) [Dehydrocholic acid] , answer whether its LC retention time meets or surpasses 4 min.
Result: Fulfilled

Task: Given the entry COP(=O)(OC)C(O)C(Cl)(Cl)Cl (stereo unspecified) [Trichlorfon] , answer whether its LC retention time meets or surpasses 4 min.
Result: Not fulfilled

Task: Given the entry CCCCCCCCSC(=O)Oc1cc(Cl)nnc1-c1ccccc1 [Pyridat] , answer whether its LC retention time meets or surpasses 4 min.
Result: Fulfilled

Task: Given the entry CCCSP(=O)(OCC)Oc1ccc(Br)cc1Cl (stereo unspecified) [Profenofos] , answer whether its LC retention time meets or surpasses 4 min.
Result: Fulfilled

Task: Given the entry COP(=S)(OC)Oc1c(Cl)cc(C)cc1Cl [Tolclosof methyl] , answer whether its LC retention time meets or surpasses 4 min.
Result: Fulfilled

Task: Given the entry CCCN(CC)CC1COC2(CCC(C(C)(C)C)CC2)O1 (stereo unspecified) [Spiroxamine] , answer whether its LC retention time meets or surpasses 4 min.
Result: Fulfilled

Task: Given the entry CCS(=O)(=O)c1nnc(N(C)C(=O)NC)s1 [Sulfadiazole] , answer whether its LC retention time meets or surpasses 4 min.
Result: Not fulfilled

Task: Given the entry CCCCCCSCC(NC(=O)CCC(N)C(=O)O)C(=O)NCC(=O)O (stereo unspecified) [S-HEXYL-GLUTATHIONE] , answer whether its LC retention time meets or surpasses 4 min.
Result: Not fulfilled

Task: Given the entry Nc1nc2nc[nH]c2c(=O)[nH]1 [GUANINE] , answer whether its LC retention time meets or surpasses 4 min.
Result: Not fulfilled

Task: Given the entry COC(=O)N(OC)c1ccccc1COc1ccn(-c2ccc(Cl)cc2)n1 [Pyraclostrobin] , answer whether its LC retention time meets or surpasses 4 min.
Result: Fulfilled

Task: Given the entry Cc1ccc(-c2c(Cl)nc(C#N)n2S(=O)(=O)N(C)C)cc1 [Cyazofamid] , answer whether its LC retention time meets or surpasses 4 min.
Result: Fulfilled

Task: Given the entry CC(CCC(=O)NCCS(=O)(=O)O)C1CCC2C3CCC4CC(O)CCC4(C)C3CC(O)C12C (stereo unspecified) [Taurodeoxycholic acid] , answer whether its LC retention time meets or surpasses 4 min.
Result: Fulfilled

Task: Given the entry CCOP(=S)(OCC)Oc1cc(C)nc(C(C)C)n1 [Diazinon] , answer whether its LC retention time meets or surpasses 4 min.
Result: Fulfilled

Task: Given the entry C[C@H](CCC(=O)O)[C@H]1CC[C@H]2[C@@H]3[C@H](O)C[C@@H]4C[C@H](O)CC[C@]4(C)[C@H]3CC(=O)[C@]12C [(3ALPHA,5BETA,7ALPHA)-3,7-DIHYDROXY-12-OXOCHOLAN-24-OIC ACID] , answer whether its LC retention time meets or surpasses 4 min.
Result: Fulfilled

Task: Given the entry CCCCCCCCCC=CC(=O)OC(CC(=O)[O-])C[N+](C)(C)C [trans-2-Dodecenoyl-L-carnitine] , answer whether its LC retention time meets or surpasses 4 min.
Result: Fulfilled

Task: Given the entry COC(=O)C(C)N(C(=O)c1ccco1)c1c(C)cccc1C (stereo unspecified) [Furalaxyl] , answer whether its LC retention time meets or surpasses 4 min.
Result: Fulfilled

Task: Given the entry O=C/C=C/c1ccccc1 [TRANS-CINNAMALDEHYDE] , answer whether its LC retention time meets or surpasses 4 min.
Result: Fulfilled

Task: Given the entry CSC1=NC(C)(c2ccccc2)C(=O)N1Nc1ccccc1 (stereo unspecified) [Fenamidone] , answer whether its LC retention time meets or surpasses 4 min.
Result: Fulfilled

Task: Given the entry CNC(=O)C=C(C)OP(=O)(OC)OC [Monocrotophos] , answer whether its LC retention time meets or surpasses 4 min.
Result: Not fulfilled

Task: Given the entry O=C(O)CNC(=O)C=Cc1ccccc1 [N-(CINNAMOYL)GLYCINE] , answer whether its LC retention time meets or surpasses 4 min.
Result: Not fulfilled

Task: Given the entry CCCCC(O)(Cn1cncn1)c1ccc(Cl)cc1Cl (stereo unspecified) [Hexaconazole] , answer whether its LC retention time meets or surpasses 4 min.
Result: Fulfilled

Task: Given the entry c1ccc2[nH]c(-c3cscn3)nc2c1 [Thiabendazole] , answer whether its LC retention time meets or surpasses 4 min.
Result: Not fulfilled

Task: Given the entry CCOP(=S)(OCC)Oc1cnc2ccccc2n1 [Quinalfos] , answer whether its LC retention time meets or surpasses 4 min.
Result: Fulfilled

Task: Given the entry CC(COc1ccc(Oc2ccccc2)cc1)Oc1ccccn1 (stereo unspecified) [Pyripoxyfen] , answer whether its LC retention time meets or surpasses 4 min.
Result: Fulfilled

Task: Given the entry CC(CCC(=O)O)C1CCC2C3C(O)CC4CC(O)CCC4(C)C3CC(O)C12C (stereo unspecified) [Ursocholic acid (7-epicholic acid)] , answer whether its LC retention time meets or surpasses 4 min.
Result: Fulfilled

Task: Given the entry COCCN(C(=O)CCl)c1c(C)cccc1C [Dimethachlor] , answer whether its LC retention time meets or surpasses 4 min.
Result: Fulfilled

Task: Given the entry Cc1cn(C2CC(O)C(CO)O2)c(=O)[nH]c1=O (stereo unspecified) [THYMIDINE] , answer whether its LC retention time meets or surpasses 4 min.
Result: Not fulfilled

Task: Given the entry O=C(Nc1ccccc1)N(Cc1ccc(Cl)cc1)C1CCCC1 [Pencycuron] , answer whether its LC retention time meets or surpasses 4 min.
Result: Fulfilled

Task: Given the entry CCCCN(CCCC)SN(C)C(=O)Oc1cccc2c1OC(C)(C)C2 [Carbosulfan] , answer whether its LC retention time meets or surpasses 4 min.
Result: Fulfilled

Task: Given the entry O=C(NC(=O)c1c(F)cccc1F)Nc1ccc(Oc2ccc(C(F)(F)F)cc2Cl)cc1F [Flufenoxuron] , answer whether its LC retention time meets or surpasses 4 min.
Result: Fulfilled

Task: Given the entry CCOP(=S)(OCC)Oc1ccc2c(C)c(Cl)c(=O)oc2c1 [Coumaphos] , answer whether its LC retention time meets or surpasses 4 min.
Result: Fulfilled

Task: Given the entry CC12CCC(O)CC1CCC1C2CC(O)C2(C)C(C3=CC(=O)OC3)CCC12O (stereo unspecified) [Digoxigenin] , answer whether its LC retention time meets or surpasses 4 min.
Result: Not fulfilled

Task: Given the entry Clc1ccc(C2(Cn3cncn3)OCCO2)c(Cl)c1 [Azaconazole] , answer whether its LC retention time meets or surpasses 4 min.
Result: Fulfilled

Task: Given the entry O=C(Nc1ccc(F)cc1)c1cccc(Oc2cccc(C(F)(F)F)c2)n1 [Picolinafen] , answer whether its LC retention time meets or surpasses 4 min.
Result: Fulfilled

* * *

- run.description: RP, Waters CORTECS UPLC C18, 100 × 2.1 mm, 1.6 µm, 40 °C, 0.4 mL/min, estimated dead time 0.55 min; A: water + 0.1% formic acid, pH 3; B: acetonitrile + 0.1% formic acid, pH 3; gradient (min/%B) 0/5 1.12/5 6.41/99.5 10.01/99.5
- condition.label: stereoisomer not certain
measured.quantity: LC retention time (min)
Only the number, expressed in min, is required.

Task: Give its LC retention time value. Item: Cn1c(=O)c2[nH]cnc2n(C)c1=O [THEOPHYLLINE]
Result: 2.15

Task: Give its LC retention time value. Item: NC(=O)c1ccccc1O [SALICYLAMIDE]
Result: 2.88

Task: Give its LC retention time value. Item: CCCOC(=O)NCCCN(C)C [Propamocarb]
Result: 1.97

Task: Give its LC retention time value. Item: C#CCOc1ccc(CCNC(=O)C(OCC#C)c2ccc(Cl)cc2)cc1OC (stereo not given) [Mandipropamid]
Result: 4.95

Task: Give its LC retention time value. Item: Nc1cnn(-c2ccccc2)c(=O)c1Cl [Chloridazon]
Result: 3.17

Task: Give its LC retention time value. Item: CCc1nn(C)c(C(=O)NCc2ccc(C(C)(C)C)cc2)c1Cl [Tebufanpyrad]
Result: 5.93

Task: Give its LC retention time value. Item: COP(N)(=O)SC (stereo not given) [Methamidophos]
Result: 0.974

Task: Give its LC retention time value. Item: CC1=C(C(=O)Nc2ccccc2)SCCO1 [Carboxin]
Result: 4.3

Task: Give its LC retention time value. Item: CC1CCC2(OC1)OC1CC3C4CC=C5CC(O)CCC5(C)C4CCC3(C)C1C2C (stereo not given) [Diosgenin]
Result: 7.3

Task: Give its LC retention time value. Item: CCCN(CCC)C(=O)SCc1ccccc1 [Prosulfocarb]
Result: 5.95

* * *

- run.description: RP, Waters CORTECS UPLC C18, 100 × 2.1 mm, 1.6 µm, 40 °C, 0.4 mL/min, estimated dead time 0.55 min; A: water + 0.1% formic acid, pH 3; B: acetonitrile + 0.1% formic acid, pH 3; gradient (min/%B) 0/5 1.12/5 6.41/99.5 10.01/99.5
- condition.label: stereoisomer not certain
measured.quantity: LC retention time (min)
Only the number, expressed in min, is required.

Task: Give its LC retention time value. Item: CCOP(=S)(OCC)ON=C(C#N)c1ccccc1
Result: 5.44

Task: Give its LC retention time value. Item: O=C(O)Cc1c[nH]c2ccccc12
Result: 3.4

Task: Give its LC retention time value. Item: CC12CC1(C)C(=O)N(c1cc(Cl)cc(Cl)c1)C2=O (stereo not drawn)
Result: 5.21

Task: Give its LC retention time value. Item: O=[N+]([O-])c1cc(C(F)(F)F)c(Cl)c([N+](=O)[O-])c1Nc1ncc(C(F)(F)F)cc1Cl
Result: 5.97

Task: Give its LC retention time value. Item: CCC(C)C1OC2(C=CC1C)CC1CC(CC=C(C)C(OC3CC(OC)C(OC4CC(OC)C(O)C(C)O4)C(C)O3)C(C)C=CC=C3COC4C(O)C(C)=CC(C(=O)O1)C34O)O2 (stereo not drawn) [Mixture of Avermectin B1a and B1b]
Result: 6.5

Task: Give its LC retention time value. Item: CC(=O)OCC(=O)C1(O)CCC2C3CCC4=CC(=O)CCC4(C)C3C(O)CC21C (stereo not drawn) [CORTISOL 21-ACETATE]
Result: 4.25

Task: Give its LC retention time value. Item: O=C(Nc1ccccc1)Nc1cnns1
Result: 3.74

Task: Give its LC retention time value. Item: CCC(C)C(=O)NCC(=O)O (stereo not drawn)
Result: 2.27
